# Assayed System: UniProt:P21918
# Sequence (P21918 whole entry): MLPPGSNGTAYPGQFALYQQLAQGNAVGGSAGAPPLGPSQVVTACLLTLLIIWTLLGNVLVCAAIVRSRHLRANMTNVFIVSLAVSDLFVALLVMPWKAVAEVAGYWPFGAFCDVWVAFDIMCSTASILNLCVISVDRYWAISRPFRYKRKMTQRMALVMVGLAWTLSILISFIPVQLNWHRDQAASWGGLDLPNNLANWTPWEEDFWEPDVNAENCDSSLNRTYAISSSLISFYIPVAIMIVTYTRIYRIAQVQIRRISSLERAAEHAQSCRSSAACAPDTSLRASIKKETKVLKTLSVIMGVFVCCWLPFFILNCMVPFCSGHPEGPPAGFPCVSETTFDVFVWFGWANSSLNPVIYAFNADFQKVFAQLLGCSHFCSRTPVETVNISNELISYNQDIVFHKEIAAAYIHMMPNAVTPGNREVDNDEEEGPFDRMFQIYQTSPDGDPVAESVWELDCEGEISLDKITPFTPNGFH
# Protocol Notes: biochemical
# Measurement Context: [3H]SCH23390 radioligand, triplicate, na = not active (<50% inhibition in a primary assay when tested at 10 µM)
Sorting guide: entries reporting Ki beneath 400 nM go in the t pile, the rest go in the f pile.

These recorded examples may help you get a feel for the data.
CN1CCc2c(ccc(O)c2Cl)C(c2ccccc2)C1 (stereo not shown) [Compound 15a]    t
Cc1cccc(C2CN(C)CCc3c2ccc(O)c3Cl)c1 (stereo not shown) [Compound 15b]    t
CN1CCc2c(cc(N)c(O)c2Cl)C(c2ccccc2)C1 (stereo not shown) [Compound 17a]    t
CCCC(=O)Nc1cc2c(c(Cl)c1O)CCN(C)CC2c1cccc(C)c1 (stereo not shown) [Compound 19b]    f
C=CCN1CCc2c(ccc(O)c2Cl)C(c2cccc(C)c2)C1 (stereo not shown) [Compound 14b]    f

Inquiry: Ki under 400 nM? Item: Oc1ccc2c(c1Cl)CCNCC2c1ccccc1 (stereo not shown) [Compound 11a]
Reply text: f

Inquiry: Lookup Cc1cccc(C2CN(C)CCc3c2cc(N)c(O)c3Cl)c1 (stereo not shown) [Compound 17b]
Reply text: t

Inquiry: What about CN1CCc2c(ccc(O)c2Cl)C(c2ccc(O)cc2)C1 (stereo not shown) [Compound 15d] ?
Reply text: f

Inquiry: What do you get for Cc1cccc(C2CNCCc3c2cc([N+](=O)[O-])c(O)c3Cl)c1 (stereo not shown) [Compound 24b] ?
Reply text: t

Inquiry: Do the same for C=CCN1CCc2c(ccc(O)c2Cl)C(c2ccccc2)C1 (stereo not shown) [Compound 14a] please
Reply text: t

All values here come from paper PMC10458514.
